# target.under.test: bovine cardiac myofibrils (full-length cardiac myosin ATPase in the native sarcomere) (Bos taurus (Bovine), UniProt Q9BE39)
# Sequence (Q9BE39 whole entry): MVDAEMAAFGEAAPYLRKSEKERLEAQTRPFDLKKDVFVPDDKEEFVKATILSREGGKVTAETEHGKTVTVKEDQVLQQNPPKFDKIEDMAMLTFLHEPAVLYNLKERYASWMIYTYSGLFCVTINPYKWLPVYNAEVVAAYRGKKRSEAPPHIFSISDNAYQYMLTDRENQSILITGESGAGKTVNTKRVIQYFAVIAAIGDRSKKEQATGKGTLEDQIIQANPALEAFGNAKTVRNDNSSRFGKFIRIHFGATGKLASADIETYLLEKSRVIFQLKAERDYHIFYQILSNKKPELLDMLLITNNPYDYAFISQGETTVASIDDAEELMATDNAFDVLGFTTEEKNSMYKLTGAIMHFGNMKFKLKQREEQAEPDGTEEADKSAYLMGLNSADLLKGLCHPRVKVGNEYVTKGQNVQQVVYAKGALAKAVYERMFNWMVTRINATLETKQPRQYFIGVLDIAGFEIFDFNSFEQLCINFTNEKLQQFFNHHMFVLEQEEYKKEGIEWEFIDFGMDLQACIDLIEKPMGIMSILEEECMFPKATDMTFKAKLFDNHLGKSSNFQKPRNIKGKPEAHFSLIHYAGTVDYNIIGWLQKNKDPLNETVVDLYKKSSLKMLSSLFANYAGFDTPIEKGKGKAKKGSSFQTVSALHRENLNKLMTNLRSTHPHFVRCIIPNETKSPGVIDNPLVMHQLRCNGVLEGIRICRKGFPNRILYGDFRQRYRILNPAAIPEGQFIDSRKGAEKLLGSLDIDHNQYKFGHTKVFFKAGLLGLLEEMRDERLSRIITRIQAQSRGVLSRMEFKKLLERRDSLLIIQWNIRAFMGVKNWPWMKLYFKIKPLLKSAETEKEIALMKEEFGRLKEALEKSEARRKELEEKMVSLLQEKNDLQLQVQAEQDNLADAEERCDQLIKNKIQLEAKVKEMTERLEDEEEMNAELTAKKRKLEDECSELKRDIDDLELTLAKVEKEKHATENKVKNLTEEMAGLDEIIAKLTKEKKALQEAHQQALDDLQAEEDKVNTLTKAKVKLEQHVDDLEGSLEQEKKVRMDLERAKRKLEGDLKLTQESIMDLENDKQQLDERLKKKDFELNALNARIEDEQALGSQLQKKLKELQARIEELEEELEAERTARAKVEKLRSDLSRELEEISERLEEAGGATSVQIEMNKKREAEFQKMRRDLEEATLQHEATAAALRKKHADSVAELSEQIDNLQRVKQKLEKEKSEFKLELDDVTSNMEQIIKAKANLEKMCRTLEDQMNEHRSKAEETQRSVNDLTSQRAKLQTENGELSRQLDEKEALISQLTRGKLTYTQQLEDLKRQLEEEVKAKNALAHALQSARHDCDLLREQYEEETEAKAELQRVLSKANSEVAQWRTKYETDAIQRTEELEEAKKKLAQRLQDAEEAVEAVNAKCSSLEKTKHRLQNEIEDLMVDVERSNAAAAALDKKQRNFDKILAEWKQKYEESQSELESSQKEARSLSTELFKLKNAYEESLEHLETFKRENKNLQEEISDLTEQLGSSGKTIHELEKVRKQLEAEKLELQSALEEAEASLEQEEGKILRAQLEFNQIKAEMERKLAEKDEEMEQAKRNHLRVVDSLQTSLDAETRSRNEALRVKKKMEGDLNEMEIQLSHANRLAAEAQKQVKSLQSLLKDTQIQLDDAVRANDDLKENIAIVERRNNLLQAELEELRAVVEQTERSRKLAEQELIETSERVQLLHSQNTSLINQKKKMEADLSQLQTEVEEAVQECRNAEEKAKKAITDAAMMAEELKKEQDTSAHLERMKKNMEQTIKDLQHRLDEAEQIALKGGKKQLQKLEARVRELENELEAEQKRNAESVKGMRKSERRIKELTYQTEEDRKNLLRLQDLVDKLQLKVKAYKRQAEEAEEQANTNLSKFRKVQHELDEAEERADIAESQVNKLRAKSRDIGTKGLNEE
# Sequence (P85100 whole entry partner): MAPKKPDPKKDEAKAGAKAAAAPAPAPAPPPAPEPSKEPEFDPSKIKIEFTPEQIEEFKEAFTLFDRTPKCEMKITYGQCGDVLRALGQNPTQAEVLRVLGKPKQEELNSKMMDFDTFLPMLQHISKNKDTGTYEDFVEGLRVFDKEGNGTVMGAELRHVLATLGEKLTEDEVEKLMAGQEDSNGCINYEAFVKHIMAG
# Sequence (Q3SZE5 whole entry partner): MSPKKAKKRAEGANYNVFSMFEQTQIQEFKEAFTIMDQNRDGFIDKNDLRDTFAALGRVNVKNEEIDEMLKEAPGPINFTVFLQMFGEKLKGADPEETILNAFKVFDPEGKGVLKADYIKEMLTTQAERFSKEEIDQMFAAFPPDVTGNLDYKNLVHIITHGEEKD
# assay.text: Skinned bovine cardiac myofibril ATPase assay (PK/LDH-coupled)
# assay.setup: Ca2+ activating to 75% of maximal rate, read-out: CDMF75 IC50
What IC50 was measured for each of the following?

Reported IC50 for Cc1ccc(-c2ccc3c(c2)CC[C@H]3NC(=O)c2ccnn2C)cn1 [Compound 375] : what is it? > 39.2 µM

Reported IC50 for CC(C)OC(=O)N[C@@H]1CCc2cc(-c3noc(C(F)F)n3)ccc21 [Compound 279] : what is it? > 39.2 µM

Reported IC50 for CC(C)NC(=O)NC1CCc2cc(-c3noc(C(F)F)n3)ccc21 (stereo not drawn) [Compound 14] : what is it? > 39.2 µM
